Test system: Proteasome subunit beta (Trypanosoma cruzi) (UniProt O96673)
Sequence (O96673 as listed by the source): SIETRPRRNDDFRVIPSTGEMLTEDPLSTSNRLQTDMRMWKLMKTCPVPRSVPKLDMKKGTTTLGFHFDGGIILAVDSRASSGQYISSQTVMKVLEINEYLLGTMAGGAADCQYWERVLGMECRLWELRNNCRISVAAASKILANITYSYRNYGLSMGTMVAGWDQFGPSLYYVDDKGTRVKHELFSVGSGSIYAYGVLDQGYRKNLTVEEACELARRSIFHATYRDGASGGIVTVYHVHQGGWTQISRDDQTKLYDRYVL
Assay details: Trypanosoma cruzi proteasome chymotrypsin-like activity (TcProtChymo) assay. Further: in the data most compounds retested in dose-response had high values.
Format: functional
Design: scale not given: direction of the effect not stated beside the values
Condition label: 9.37 µM
Assign Percent Effect to each entry below.
Answers are plain numbers, in %.

Compound	Recorded number
CC(C)OCCCNC(=O)c1ccc(-c2ccco2)[nH]c1=O	10.1
CCn1cc(CN2CCCC(CO)(CCc3ccccc3)C2)c(C)n1 (configuration not stated)	12.1
CCc1cnc(CN(C)C2CCN(CCS(C)(=O)=O)C2)o1 (configuration not stated)	3.51

// batch mode: one Percent Effect value per listed entry
1. CCCN1CCC(N(Cc2ncc(C)o2)C(C)=O)C1 (configuration not stated)
2. CN1CCCN(C[C@@H]2CN(C(=O)CCC3CCCC3)C[C@@H]2CO)CC1
3. COc1cc(C)nc(N2CCN(C(=O)c3ccc(Cl)o3)CC2)n1
4. Cc1ccc(C(=O)N2CCn3cc(CN(C)Cc4ccco4)nc3C2)o1
5. O=c1ccc(-c2ccccc2F)nn1CCN1CCCS1(=O)=O
6. O=C(c1cccs1)N1CCC2(C1)c1ccccc1S(=O)(=O)N2CC1CC1 (configuration not stated)
7. NC(=O)COc1cccc(C(=O)Nc2cnc3n2CCCC3)c1

Found:
[22.6, 3.66, -3.06, 3.13, 1.29, 2.03, 10.7]

List the reported Percent Effect of each compound below.
1. CCC1CN(CC(=O)Nc2sccc2C#N)CCO1 (configuration not stated)
2. CN(C)S(=O)(=O)c1ccc(CN2CCCC2c2ccccc2)o1 (configuration not stated)

Found:
1. 8.19
2. 5.33

---

Test system: Arginase-2, mitochondrial (Homo sapiens)
Sequence (whole entry): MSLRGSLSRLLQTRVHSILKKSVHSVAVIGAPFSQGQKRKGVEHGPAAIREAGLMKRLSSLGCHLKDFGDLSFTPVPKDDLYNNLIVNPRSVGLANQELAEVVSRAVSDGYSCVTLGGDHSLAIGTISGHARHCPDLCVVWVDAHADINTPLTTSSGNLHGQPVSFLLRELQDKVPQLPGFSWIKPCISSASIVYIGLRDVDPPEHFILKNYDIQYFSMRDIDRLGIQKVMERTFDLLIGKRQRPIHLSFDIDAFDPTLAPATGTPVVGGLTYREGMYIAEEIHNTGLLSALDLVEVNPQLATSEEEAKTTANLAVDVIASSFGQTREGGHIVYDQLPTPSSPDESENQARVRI
Assay details: in vitro enzyme assay to detect the production of urea directly proportional to the activity of Arginase II; further: in the data most compounds retested in dose-response had high values
Type: functional
Parameters: scale not given: direction of the effect not stated beside the values
Condition label: 33.3 µM
Quantity name: Percent Effect (%)
Answers are plain numbers, in %.

Check out these entries, answers already filled in.
Molecule	Uom	Recorded number
Cc1cccc(C(=O)N2C[C@@H]3CCN(c4cccnc4)C[C@@H]3C2)c1	%	0.233
CCS(=O)(=O)c1ccccc1C(=O)NCc1ccnc(N(C)C)c1	%	4.27
CCN1CCN(C2CCN(Cc3nnc(C(C)(C)C)o3)CC2)C1=O	%	1.05

Go through the items and report each one's Percent Effect.
1. CC(C(=O)N1CCN(c2ccccc2Cl)CC1)n1cncn1 (stereo not drawn)
2. c1cnc(-c2cnc(N3CCSCC3)nc2C2CC2)cn1
3. Cc1occc1C(=O)N1CCO[C@H]2[C@@H](Oc3ccccn3)CC[C@@H]21

Found:
1: -1.07; 2: -0.699; 3: 0.699

Give Percent Effect for each listed item.
1. CCc1nnc(Nc2cccc(C3CCN(CCO)CC3)n2)s1
2. CC(C)C1CN(c2ncccn2)CCC(=O)N1Cc1ccc(F)cc1 (stereo not drawn)

Found:
1. -2.55
2. 4.86

---

Test system: Protein translocase subunit SecA (Escherichia coli (strain K12)) (UniProt P10408)
Sequence (P10408 whole entry): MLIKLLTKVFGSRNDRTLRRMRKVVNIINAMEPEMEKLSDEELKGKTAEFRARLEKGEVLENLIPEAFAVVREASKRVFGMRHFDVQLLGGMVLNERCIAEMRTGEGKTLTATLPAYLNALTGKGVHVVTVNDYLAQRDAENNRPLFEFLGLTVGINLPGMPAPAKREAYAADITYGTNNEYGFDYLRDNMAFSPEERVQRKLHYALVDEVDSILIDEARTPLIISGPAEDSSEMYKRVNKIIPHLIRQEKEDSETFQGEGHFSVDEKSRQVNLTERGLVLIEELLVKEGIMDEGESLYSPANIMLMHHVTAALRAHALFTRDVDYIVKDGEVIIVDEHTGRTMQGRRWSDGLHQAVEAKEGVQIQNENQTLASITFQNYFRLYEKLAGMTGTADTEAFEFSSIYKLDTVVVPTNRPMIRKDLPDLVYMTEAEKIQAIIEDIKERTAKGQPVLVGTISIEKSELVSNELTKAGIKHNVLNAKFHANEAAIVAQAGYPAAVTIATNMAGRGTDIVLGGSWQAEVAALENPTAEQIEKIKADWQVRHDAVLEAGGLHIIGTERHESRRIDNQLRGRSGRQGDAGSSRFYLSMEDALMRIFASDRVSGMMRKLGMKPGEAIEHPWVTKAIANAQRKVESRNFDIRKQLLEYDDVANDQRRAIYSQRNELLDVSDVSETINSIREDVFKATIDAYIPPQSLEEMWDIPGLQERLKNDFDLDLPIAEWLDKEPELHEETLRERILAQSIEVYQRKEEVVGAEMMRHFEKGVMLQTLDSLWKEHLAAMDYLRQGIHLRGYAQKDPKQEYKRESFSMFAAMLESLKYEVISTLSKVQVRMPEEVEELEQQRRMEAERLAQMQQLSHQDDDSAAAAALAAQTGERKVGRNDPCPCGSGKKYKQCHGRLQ
Assay details: Assay to Identify E. coli SecA ATPase Inhibitors
Type: functional
Set-up: scale not given: direction of the effect not stated beside the values
Condition label: 30 µM
Entries with a potency or affinity are not part of this list.
Please go through the items and note down their Percent Effect.

Compound	Test system	Percent Effect
COc1ccc(NC(C)C(=O)NCCc2cccs2)cc1F (configuration not stated)	Protein translocase subunit SecA (Escherichia coli (strain K12)) (UniProt P10408)	-7.72%
Cc1ccn(-c2ccc(C(=O)N3CCCC(C(N)=O)C3)cc2)n1 (configuration not stated)	Protein translocase subunit SecA (Escherichia coli (strain K12)) (UniProt P10408)	-6.07%
O=C(NCCN1CCOCC1)c1cc(-c2ccc3c(c2)CCO3)n[nH]1	Protein translocase subunit SecA (Escherichia coli (strain K12)) (UniProt P10408)	-4.45%

For every listed record, write down its Percent Effect.
1. CCOC(C)c1nc(CN2CCNCC2)cs1 (configuration not stated)
2. O=c1c2sccc2nc2n1CCN(Cc1cccs1)CC2
3. Cc1ccc(CNC(=O)NCc2csc(C)n2)cn1
4. COc1ccc(C(=O)N2Cc3c(Cn4ccnc4)nn(C)c3C2)cc1
5. CS(=O)(=O)NCCCN1CCCCC1c1cc2ccccc2[nH]1 (configuration not stated)
6. CN1CC(=O)N(c2ccccc2)CC12CCN(Cc1cccnc1)C2 (configuration not stated)
7. CNC(=O)[C@H]1CO[C@H]2CCN(Cc3ccc4ccccc4n3)C[C@H]2C1
8. CCc1nc(CN2CCCN(c3nccs3)CC2)no1

Found:
["-3%", "-2.34%", "-2.07%", "-2.78%", "-6.23%", "-2.77%", "-4.79%", "-2.88%"]

// batch mode: one Percent Effect value per listed entry
1. Cc1cc(C)cc(OCCC(=O)N2CCCC(n3cncn3)C2)c1 (configuration not stated)
2. Cc1nn(CC(=O)N2CCN(c3ccncc3)CC2)c(C)c1Cl
3. O=C(CCC1CCCO1)NS(=O)(=O)c1ccc(Cl)cc1 (configuration not stated)
4. OC(CN(Cc1ccccc1)Cc1ccncc1)c1cccs1 (configuration not stated)
5. CN(Cc1ccc(F)cc1)CC1(O)CCN(C(=O)c2cccn2C)C1 (configuration not stated)

Found:
1: -0.911%; 2: -3.26%; 3: -3.22%; 4: 3.55%; 5: -6.43%

Lookup: Which measured Percent Effect value corresponds to "CCC(=O)N(C)C1CCN(Cc2ncc(C)c(OC)c2C)CC1" ?
Found: -5.54%

---

Test system: Proteasome subunit beta (Trypanosoma cruzi)
Assay details: Trypanosoma cruzi proteasome chymotrypsin-like activity (TcProtChymo) assay. Further: in the data most compounds retested in dose-response had high values.
Assay type: functional
Design: scale not given: direction of the effect not stated beside the values
Condition label: 9.37 µM
Kindly supply the reported Percent Effect values for the records listed here.
Give bare numbers, in %.

Below: 5 compounds and their reported Percent Effect.
Compound	Quantity name	Uom	Recorded number
O=C(N[C@@H]1CN(c2ncccn2)C[C@@H]2CCCO[C@@H]21)c1cnccn1	Percent Effect	%	7.18
Cc1cccc2c1OCCC2NCc1c(C)nn(C)c1N(C)C (configuration not stated)	Percent Effect	%	16.9
COc1cccc(C2CCCN2Cc2nc3c(cnn3C)c(=O)[nH]2)c1 (configuration not stated)	Percent Effect	%	14.2
COc1ccc(-c2nccnc2C2CCN(C(C)=O)CC2)cc1	Percent Effect	%	11.7
CCCN1CCCn2nc(CNC(=O)CCc3scnc3C)cc2C1	Percent Effect	%	16.7

Return reported Percent Effect values for all items listed beneath this line.
1. Cc1cc(C)n(CC(C)CNC(=O)[C@@H](C)NC(=O)OC(C)(C)C)n1 (some centres not stated)
2. CCc1ncc2c(n1)CN(C(=O)COC)C2
3. CCc1noc(C)c1C(=O)N1CCCC1Cn1cc(C)cn1 (configuration not stated)
4. CC(C)OCCN(Cc1cccc(O)c1)C1CCC(O)CC1 (configuration not stated)
5. O=C(C1CCN(c2snc3ccccc23)CC1)N1CCCCCC1
6. CCc1nc(C2CCCN(C(=O)c3ccc4[nH]nnc4c3)C2)no1 (configuration not stated)

Found:
1: 17.7; 2: 12.1; 3: 3.64; 4: 4.89; 5: 13.7; 6: 17.2

---

Test system: Tyrosyl-tRNA synthetase, putative (Trypanosoma cruzi (strain CL Brener))
Assay details: Trypanosoma cruzi tyrosyl tRNA synthetase (TcYRS) _High Tyrosine SOP; further: in the data most compounds retested in dose-response had high values
Type: functional
Design: scale not given: direction of the effect not stated beside the values
Condition label: 30 µM
Would you mind telling me the reported Percent Effect of each entry?
Numbers only, in %.

Provide each entry's Percent Effect from the list below.
1. CCCN(C)C(=O)c1ccc2c(c1)[nH]c(=O)n2CCOCC
2. c1cc(OCc2ccc3c(c2)OCCO3)ccc1CNC1CC1
3. Cn1cccc1C(=O)N1CCc2ncnc(N3CCCC3)c2CC1

Found:
[2.65, -2.13, 5.32]

---

Record form. Attribute: Percent Effect. Fill in for each entry.
Tested on: Trypanosoma cruzi
Assay details: Trypanosoma cruzi phosphomannomutase and mannose-1-phosphate guanylyltransferase assay
Format: functional
Set-up: scale not given: direction of the effect not stated beside the values
Condition label: 10 µM
Give bare numbers, in %.

Solved cases below.
Compound	Test system	Recorded number
O=C(CCC1CCCO1)NS(=O)(=O)c1ccc(Cl)cc1 (configuration not stated)	Trypanosoma cruzi	-4.81
O=C(Nc1cccnc1)[C@H]1C[C@@H]2CCN(c3nncs3)C[C@H]2O1	Trypanosoma cruzi	2.54

Give Percent Effect for each listed item.
1. CSc1sc(NC(=O)Cc2c(C)nc(C)[nH]c2=O)nc1C
2. Cn1cc(CCNC(=O)NC2CCS(=O)(=O)C2)cn1 (configuration not stated)
3. CC(C)COC(C)C(=O)NCc1ccc(OC(C)C)nc1 (configuration not stated)
4. CCNC(=O)Nc1ccc2c(ccn2CC(=O)N(CC)CC)c1
5. COc1cccc(Cc2nnc(SC3CCOC3=O)o2)c1 (configuration not stated)

Found:
1: 5.83; 2: -4.57; 3: 2.84; 4: -0.188; 5: 2.04
